SYSTEM_NAME: T1, human Trop-2-His (human, UniProt P09758 27-274, limits assumed)
T1 construct: by analogy with the macaque construct it is probably the extracellular domain with a His tag; also called Trop-2-His protein
T1 sequence: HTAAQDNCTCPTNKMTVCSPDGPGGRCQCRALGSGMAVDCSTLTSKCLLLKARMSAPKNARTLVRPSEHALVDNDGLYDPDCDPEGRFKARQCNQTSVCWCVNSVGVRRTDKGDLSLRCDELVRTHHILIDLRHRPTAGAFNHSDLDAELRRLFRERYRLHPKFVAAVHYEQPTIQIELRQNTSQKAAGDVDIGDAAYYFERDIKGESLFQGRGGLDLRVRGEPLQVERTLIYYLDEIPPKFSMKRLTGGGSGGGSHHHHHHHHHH
EXPERIMENT: SPR (Biacore 8K), antibody captured, Trop-2-His as analyte
Description: The affinity of antibodies for human Trop-2-His was detected in the form of antibody capturing. […] The association and dissociation curves were collected by Biacore 8K Control Software 3.0 in real time, and the data were analyzed by Biacore Insight Evaluation Software 3.0. […]
Reported koff values for the following binders.
Write the value in s⁻¹ as a bare number.

BINDER	VALUE_TYPE	UNIT_NAME	OBSERVED_RESULT
hz-Ab2-1.3 (antibody, human IgG1, kappa, V domains shown, Humanized antibody) VH: QVQLQESGPGLVKPSETLSLTCTVSGFSLTYYGIDWIRQPPGKGLEWIGVIWGSGNTKYNSALKSRVTISKDNSKSQFSLKLSSVTAADTAVYYCARFYEGFAYWGQGTLVTVSS VL: DIQMTQSPSSLSASVGDRVTITCKASQDINSYLSWFQQKPGKAPKTLIYRANRLVEGVPSRFSGSGSGQDYTLTISSLQPEDFATYYCLQYDEFPLTFGQGTKVEIKR	koff	s⁻¹	0.0165

Here is another binder to look at.
Recorded result, hz-Ab21-1.2 (antibody, human IgG1, kappa, V domains shown, Humanized antibody) VH: EVQLVESGGGLVKPGGSLRLSCAASGFTLRNYGVHWVRQAPGKGLEWVGVIWSSGTTDYNAAFISRFTISKDNSKNTLYLQMNSLKTEDTAVYYCTRDGDYDYYTMDYWGQGTLVTVSS VL: EIVLTQSPATLSLSPGERATLSCRASKSVSTSAYSYIHWYQQKPGQAPRLLIYLTSNLESGIPARFSGSGSGTDFTLTISSLEPEDFAVYYCQHSRELPYTFGQGTKVEIKR , koff: 0.000438
